# system: human ether-à-go-go-related gene (hERG) potassium channel (human)
# assay method text: primary screen, population patch clamp on CHO cells stably expressing hERG; higher = less effect of the substance
Among all 310,000 compounds or so, about 14,000 (4.5%) showed an effect of 50% or more. The effect is printed as a negative number. The sample holds strong results, similar compounds and a random draw of the others, so the mix is not that of the screen.
In this section, each of the compounds is paired with its reported hERG current change (%, negative = inhibition) at 10uM.
Numbers only here, please. The scale is %.

Field: example entries. Status: answers known.
compound: O=C(NC1CCCCC1)C(c1cccs1)N(CC1CCCO1)C(=O)c1csnn1 (stereo not shown)
numeric readout: -16.1
//
compound: CC(=O)n1cc([C@H]2C=C(C(=O)Nc3ccccc3)O[C@@H](OCCCCO)C2)c2ccccc21
numeric readout: -25
//
compound: COc1ccc(-n2c(SC(C)C(=O)N3CCOCC3)nc3ccccc3c2=O)cc1 (stereo not shown)
numeric readout: 6.84
//
compound: COc1ccccc1Cn1c(=O)c2ccccc2n2c(SCc3csc(C)n3)nnc12
numeric readout: -6.34
//
compound: O=S(=O)(NN=C1CCCCCCC1)c1ccc(Br)cc1
numeric readout: 4.3
//
compound: CC(=O)n1cc([C@@H]2C=C(C(=O)NCc3ccccc3)O[C@H](OCCCCO)C2)c2ccccc21
numeric readout: -78.3

Hello, please tell me recorded hERG current change (%, negative = inhibition) at 10uM for this one: CC(C)(C)c1ccc(C(=O)NNC(=O)CCc2ccccc2)cc1
7.16

Hello, please tell me recorded hERG current change (%, negative = inhibition) at 10uM for this one: COC(=O)CC1(CC(=O)OC)C(=O)NC(=O)NC1=O
7.37

Hello, please tell me recorded hERG current change (%, negative = inhibition) at 10uM for this one: CN1CCN(c2oc(Cc3cccc4ccccc34)nc2C#N)CC1
-9.75

Hello, please tell me recorded hERG current change (%, negative = inhibition) at 10uM for this one: O=C(CN1C(=O)C2CC=C(Cl)CC2C1=O)Nc1ccc(C(=O)O)cc1 (stereo not shown)
3.39

###

# system: human ether-à-go-go-related gene (hERG) potassium channel (human)
# assay method text: primary screen, population patch clamp on CHO cells stably expressing hERG; higher = less effect of the substance
Among all 310,000 compounds or so, about 14,000 (4.5%) showed an effect of 50% or more. Effects have a minus sign here. Many of the other results were omitted from the sample, so strong results are more common in it than they were.
attribute measured: hERG current change (%, negative = inhibition) at 10uM (%)
Numbers only here, please. The scale is %.

Hello, please tell me recorded hERG current change (%, negative = inhibition) at 10uM for this one: CN(C)CCCN=Cc1c(-c2ccccc2)[nH]n(-c2nc3ccccc3s2)c1=O
-71

Hello, please tell me recorded hERG current change (%, negative = inhibition) at 10uM for this one: Cc1nc(Sc2nnnn2-c2ccccc2)c(C#N)c(C)c1C
-21.3

Hello, please tell me recorded hERG current change (%, negative = inhibition) at 10uM for this one: COC(=O)C(CC(C)C)NC(=O)c1ccc([N+](=O)[O-])cc1 (centres unmarked)
-23.2

###

In this section, each of the compounds is paired with its reported hERG current change (%, negative = inhibition) at 10uM.
# system: human ether-à-go-go-related gene (hERG) potassium channel (human)
# assay method text: primary screen, population patch clamp on CHO cells stably expressing hERG; higher = less effect of the substance
Among all 310,000 compounds or so, about 14,000 (4.5%) showed an effect of 50% or more. Effects have a minus sign here. This is one part of a sample in which strong results are shown more often than they occur.
Numbers only here, please. The scale is %.

mol: O=C(NCC1CCN(S(=O)(=O)c2ccccc2)CC1)Nc1ccc(F)cc1F
system: human ether-à-go-go-related gene (hERG) potassium channel (human)
numeric readout: -4.47

mol: O=C(NCC1CCN(Cc2ccccc2F)CC1)Nc1ccccc1F
system: human ether-à-go-go-related gene (hERG) potassium channel (human)
numeric readout: -22.5

mol: COc1cc(NC(=O)NCC2CCN(Cc3ccc(C)cc3)CC2)cc(OC)c1OC
system: human ether-à-go-go-related gene (hERG) potassium channel (human)
numeric readout: -0.392

mol: CCOc1ccc(NC(=O)NCC2CCN(Cc3ccc(F)cc3)CC2)cc1
system: human ether-à-go-go-related gene (hERG) potassium channel (human);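 note: peak tail current of the secondary pulse compared with the same well before compound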
numeric readout: -76.4

Continue with the next compound.
Hello, please tell me recorded hERG current change (%, negative = inhibition) at 10uM for this one: COc1cc([N+](=O)[O-])ccc1NC(=O)CN1CCCC1
3.84

###

# system: human ether-à-go-go-related gene (hERG) potassium channel (human, UniProt Q12809);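 note: peak tail current of the secondary pulse compared with the same well before compound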
# Sequence (Q12809 whole entry, looked up): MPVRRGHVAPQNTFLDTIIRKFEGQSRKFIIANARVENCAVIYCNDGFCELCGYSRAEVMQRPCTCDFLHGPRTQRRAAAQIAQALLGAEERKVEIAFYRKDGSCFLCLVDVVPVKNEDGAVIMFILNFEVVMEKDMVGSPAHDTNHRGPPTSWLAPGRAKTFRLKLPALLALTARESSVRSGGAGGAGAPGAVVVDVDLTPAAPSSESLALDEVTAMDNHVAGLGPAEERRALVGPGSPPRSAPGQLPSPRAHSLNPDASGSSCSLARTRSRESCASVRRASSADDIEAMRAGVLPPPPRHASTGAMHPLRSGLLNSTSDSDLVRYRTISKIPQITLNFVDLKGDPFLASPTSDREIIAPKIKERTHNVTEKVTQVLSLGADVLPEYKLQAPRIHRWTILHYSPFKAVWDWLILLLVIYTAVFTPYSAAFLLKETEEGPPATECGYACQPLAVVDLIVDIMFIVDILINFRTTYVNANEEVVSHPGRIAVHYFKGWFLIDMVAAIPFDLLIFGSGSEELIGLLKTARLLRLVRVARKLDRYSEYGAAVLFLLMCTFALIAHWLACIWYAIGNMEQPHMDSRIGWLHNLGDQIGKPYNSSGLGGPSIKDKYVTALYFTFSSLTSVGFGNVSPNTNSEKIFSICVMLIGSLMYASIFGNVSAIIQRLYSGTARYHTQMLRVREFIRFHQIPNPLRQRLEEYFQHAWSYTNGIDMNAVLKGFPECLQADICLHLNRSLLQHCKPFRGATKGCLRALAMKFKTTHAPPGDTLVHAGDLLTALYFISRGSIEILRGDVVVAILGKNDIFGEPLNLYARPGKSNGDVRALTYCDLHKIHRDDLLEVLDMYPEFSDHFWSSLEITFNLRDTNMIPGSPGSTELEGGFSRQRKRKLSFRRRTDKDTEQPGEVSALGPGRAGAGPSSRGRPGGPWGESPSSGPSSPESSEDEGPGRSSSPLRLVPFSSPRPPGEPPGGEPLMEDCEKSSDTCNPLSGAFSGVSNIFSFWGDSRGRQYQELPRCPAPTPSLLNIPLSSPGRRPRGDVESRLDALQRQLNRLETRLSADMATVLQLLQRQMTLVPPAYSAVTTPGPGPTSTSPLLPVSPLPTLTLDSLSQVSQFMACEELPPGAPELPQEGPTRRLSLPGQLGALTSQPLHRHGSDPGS
# assay method text: primary screen, population patch clamp on CHO cells stably expressing hERG; higher = less effect of the substance
In all, about 310,000 compounds went through this assay and about 14,000 (4.5%) showed an effect of 50% or more. Effects have a minus sign here. Many of the other results were omitted from the sample, so strong results are more common in it than they were.
Dear colleague, classification is by hERG current change (%, negative = inhibition) at 10uM, with ranges listed here: low (below -50%), middle (-50% to below -20%), high (-20% or more)

Could you place CCCn1c2ccccc2c2cnn(CC(=O)NC3CCCCC3)c(=O)c21 in its proper category? Many thanks.
high

###

# system: human ether-à-go-go-related gene (hERG) potassium channel (human, UniProt Q12809);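 note: peak tail current of the secondary pulse compared with the same well before compound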
# assay method text: primary screen, population patch clamp on CHO cells stably expressing hERG; higher = less effect of the substance
Out of some 310,000 compounds screened, about 14,000 (4.5%) showed an effect of 50% or more. The effect is printed as a negative number. Only a selection was taken, and strong results are over-represented in it overall.
attribute measured: hERG current change (%, negative = inhibition) at 10uM
Give the value; after it, write the unit.

Field: example entries. Status: answers known.
compound: CCN(CC(=O)Nc1ccc(NC(C)=O)cc1)C(=O)CC1OC(=O)c2ccccc21 (stereo not drawn)
result: 5.6%
//
compound: O=C1CCN(CCc2ccccc2)CCN1[C@H](CSc1ccc(Br)cc1)c1ccccc1
result: -66.2%
//
compound: CCOC(=O)c1c(CN2CCOCC2)n(-c2ccccc2)c2ccc(O)cc12
result: -69.2%
//
compound: Cc1ccc(SC[C@H](c2ccccc2)N2CCN(CCc3ccccc3)CCC2=O)cc1
result: -74.7%
//
compound: O=Cc1c(Sc2ccccc2)nc2ccccn2c1=O
result: -0.892%

Hello, please tell me recorded hERG current change (%, negative = inhibition) at 10uM for this one: O=C1CCN(Cc2ccccc2)CCN1[C@H](CSc1ccccc1)c1ccccc1
-44.7%

Hello, please tell me recorded hERG current change (%, negative = inhibition) at 10uM for this one: O=C(c1ccccc1NS(=O)(=O)c1ccc(F)cc1)N1CCCCC1
-4.35%

Hello, please tell me recorded hERG current change (%, negative = inhibition) at 10uM for this one: Cc1c(NS(=O)(=O)c2cccc(C(=O)NCc3ccncc3)c2)c(=O)n(-c2ccccc2)n1C
6.38%

Hello, please tell me recorded hERG current change (%, negative = inhibition) at 10uM for this one: [N-]=[N+]=NC[C@H](c1ccccc1)N1CCN(Cc2ccccc2)CCC1=O
-0.754%

###

In this section, each of the molecules is paired with its reported hERG current change (%, negative = inhibition) at 10uM.
# system: human ether-à-go-go-related gene (hERG) potassium channel (human, UniProt Q12809);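 note: peak tail current of the secondary pulse compared with the same well before compound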
# assay method text: primary screen, population patch clamp on CHO cells stably expressing hERG; higher = less effect of the substance
# Experimental: Briefly, Chinese hamster ovary (CHO) cells stably expressing the hERG channel were dislodged from tissue culture flasks and dispensed into PPC plates. […] During the recording, background leak currents were estimated by a 100 ms step to -80 mV from an initial holding potential of -70 mV and subtracted from the subsequent current measurement. The campaign was conducted in two phases using slight differences in recording protocol. […]
Out of some 310,000 compounds screened, about 14,000 (4.5%) showed an effect of 50% or more. The effect is printed as a negative number. This is one part of a sample in which strong results are shown more often than they occur.

molecule: COc1cccc(-c2ccc(NC(=O)C3CCCN(Cc4nccn4C)C3)cc2)c1 (centres unmarked)
result: -31.8%

molecule: Cn1ncc(Br)c1C(=O)N/N=C/c1cccc(OC2CSC2)c1
result: -8.23%

molecule: O=S(=O)(c1cccc(S(=O)(=O)N2CCC(n3nnc4ccccc43)CC2)c1)N1CCCCC1
result: -55.7%

Hello, please tell me recorded hERG current change (%, negative = inhibition) at 10uM for this one: CCOc1ccccc1NC(=O)CSc1nnnn1Cc1ccccc1
-40.5%

Hello, please tell me recorded hERG current change (%, negative = inhibition) at 10uM for this one: CCN(Cc1ccccc1)S(=O)(=O)c1ccc2c(c1)NC(=O)CS2
-44.5%

Hello, please tell me recorded hERG current change (%, negative = inhibition) at 10uM for this one: CCCCC1(C)NC(=S)N2N1C(=S)NC2(C)CCCC (centres unmarked)
15.1%

Hello, please tell me recorded hERG current change (%, negative = inhibition) at 10uM for this one: COc1ccc(-c2nnc(-c3cc4c(ccc5ccccc54)oc3=O)o2)cc1
-8.75%

Hello, please tell me recorded hERG current change (%, negative = inhibition) at 10uM for this one: COCCCNC(=O)C1CCN(c2ccc(N3CCOCC3)nn2)CC1
10.1%

Hello, please tell me recorded hERG current change (%, negative = inhibition) at 10uM for this one: O=S(=O)(c1ccccc1)N1CCC(n2nnc3cc(F)ccc32)CC1
-27.7%

Hello, please tell me recorded hERG current change (%, negative = inhibition) at 10uM for this one: COc1cccc(-c2ccc(NC(=O)C3CCCN(Cc4cnn(C)c4C)C3)cc2)c1 (centres unmarked)
0.939%

Hello, please tell me recorded hERG current change (%, negative = inhibition) at 10uM for this one: COc1cccc(-c2ccc(NC(=O)C3CCCN(Cc4cc(C)[nH]n4)C3)cc2)c1 (centres unmarked)
-36.5%

Hello, please tell me recorded hERG current change (%, negative = inhibition) at 10uM for this one: Cc1ccc2c(c1)nnn2C1CCN(S(=O)(=O)c2cccc(S(=O)(=O)N(C)C)c2)CC1
-16.7%

Hello, please tell me recorded hERG current change (%, negative = inhibition) at 10uM for this one: COc1cccc(-c2ccc(NC(=O)C3CCCN(Cc4ccco4)C3)cc2)c1 (centres unmarked)
6.02%

Hello, please tell me recorded hERG current change (%, negative = inhibition) at 10uM for this one: N[C@@H](Cc1ccc(O)c(I)c1)C(=O)O
17.6%

Hello, please tell me recorded hERG current change (%, negative = inhibition) at 10uM for this one: COc1cccc(-c2ccc(NC(=O)C3CCCN(CCCn4nc(C)cc4C)C3)cc2)c1 (centres unmarked)
-66%

Hello, please tell me recorded hERG current change (%, negative = inhibition) at 10uM for this one: Cc1ccc(/C=C/C(=O)N2CCN(c3ccc(F)cc3)CC2)o1
-15.8%

Hello, please tell me recorded hERG current change (%, negative = inhibition) at 10uM for this one: CCOc1ccccc1OCCC(=O)OCC(=O)c1ccc[nH]1
-16.2%

Hello, please tell me recorded hERG current change (%, negative = inhibition) at 10uM for this one: O=C(NN1C(=O)/C(=C/C=C/c2ccco2)SC1=S)c1ccncc1
15.3%

Hello, please tell me recorded hERG current change (%, negative = inhibition) at 10uM for this one: O=C(/C=C/c1ccccc1Cl)Nc1ccncc1
-3.65%

Hello, please tell me recorded hERG current change (%, negative = inhibition) at 10uM for this one: CCOC(=O)N1CCN(C(=O)CN(C2CCCCC2)S(=O)(=O)c2ccc(F)cc2)CC1
-25.3%
